# ASSAYED_TARGET: T1, Collagen type III (COL3) (Homo sapiens, UniProt P02461)
# T1 chain: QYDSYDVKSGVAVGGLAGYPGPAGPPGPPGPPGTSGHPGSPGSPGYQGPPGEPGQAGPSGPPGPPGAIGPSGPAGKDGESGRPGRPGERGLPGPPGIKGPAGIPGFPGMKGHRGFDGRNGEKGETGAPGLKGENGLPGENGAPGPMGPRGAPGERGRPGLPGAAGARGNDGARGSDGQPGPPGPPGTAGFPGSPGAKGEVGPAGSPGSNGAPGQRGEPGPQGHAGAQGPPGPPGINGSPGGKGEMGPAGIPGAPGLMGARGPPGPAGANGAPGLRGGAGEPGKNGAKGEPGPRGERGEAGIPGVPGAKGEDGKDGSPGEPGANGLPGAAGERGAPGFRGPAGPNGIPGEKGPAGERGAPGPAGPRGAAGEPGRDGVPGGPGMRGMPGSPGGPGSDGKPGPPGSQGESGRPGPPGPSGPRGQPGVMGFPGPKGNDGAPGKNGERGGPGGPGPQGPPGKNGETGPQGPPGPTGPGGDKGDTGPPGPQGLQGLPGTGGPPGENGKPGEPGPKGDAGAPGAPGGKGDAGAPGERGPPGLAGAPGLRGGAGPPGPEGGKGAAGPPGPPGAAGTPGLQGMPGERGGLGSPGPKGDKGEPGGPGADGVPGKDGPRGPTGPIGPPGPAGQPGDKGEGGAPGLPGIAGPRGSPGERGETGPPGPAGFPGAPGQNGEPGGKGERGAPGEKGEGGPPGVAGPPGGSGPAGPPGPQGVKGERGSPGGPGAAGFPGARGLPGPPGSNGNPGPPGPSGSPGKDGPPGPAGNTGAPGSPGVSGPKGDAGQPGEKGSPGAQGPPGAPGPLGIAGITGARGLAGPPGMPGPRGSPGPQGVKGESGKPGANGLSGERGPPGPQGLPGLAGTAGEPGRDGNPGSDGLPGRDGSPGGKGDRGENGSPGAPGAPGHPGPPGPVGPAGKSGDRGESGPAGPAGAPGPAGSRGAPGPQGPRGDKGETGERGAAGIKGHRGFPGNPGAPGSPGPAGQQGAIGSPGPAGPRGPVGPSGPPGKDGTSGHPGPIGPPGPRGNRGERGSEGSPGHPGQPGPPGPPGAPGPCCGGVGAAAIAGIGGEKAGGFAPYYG
# ASSAY: Eu(III) time-resolved fluorescence plate assay
No end group written: not given here.
QUANTITY_NAME: Kd

DARKSEVQK (not fully specified (N-terminus); also: Eu complexed by N-terminal DOTAMA) [Eu-DOTAMA-CBP1] : 5.3 µM

Shift focus to the following entry.
Query: Suppose we examine the binder TEFPLRMRDWLKN (not fully specified (N-terminus); also: Eu complexed by N-terminal DOTAMA) [Eu-DOTAMA-CBP2] ; what Kd value has been reported?
Reply: 4.8 µM

Sourced from paper PMC11408249
